Data origin, for the record: patent US20240109974A1

- measured on: T1, human TNFR2 on the surface of CHO-TNFR2 cells (human, UniProt P20333 23-461)
- T1 construct: whole, on cells
- T1 sequence (looked up): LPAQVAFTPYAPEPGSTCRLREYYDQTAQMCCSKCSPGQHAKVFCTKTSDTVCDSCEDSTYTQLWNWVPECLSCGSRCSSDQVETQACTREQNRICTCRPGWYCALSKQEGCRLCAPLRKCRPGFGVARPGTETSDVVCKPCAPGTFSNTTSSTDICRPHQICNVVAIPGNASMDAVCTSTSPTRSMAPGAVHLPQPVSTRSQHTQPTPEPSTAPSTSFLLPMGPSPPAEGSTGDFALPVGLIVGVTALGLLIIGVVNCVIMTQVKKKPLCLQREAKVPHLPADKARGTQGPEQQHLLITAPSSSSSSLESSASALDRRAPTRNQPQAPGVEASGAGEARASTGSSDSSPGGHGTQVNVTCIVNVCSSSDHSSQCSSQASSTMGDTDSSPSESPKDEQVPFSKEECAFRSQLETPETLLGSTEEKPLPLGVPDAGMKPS
- test summary: flow cytometry on CHO-TNFR2 cells; area under the MFI fold curve
- Procedure: The transfected full-length plasmid of human TNFR2 was purchased from Sino Biological (Cat #HG10417-UT, NCBI Ref Seq: NM_001066.2). The experiment was conducted at a cell density within 80%. […] After the staining, similarly, the cells were washed twice with the staining buffer; finally, the cells were resuspended in 200 μl of staining buffer; signals were detected by a flow cytometer (Thermo Attune NxT). […]
Consider the following binders and their measured AUC readings.
measurement label: AUC

[
  {
    "binder": "001-Hu3 (antibody, V domains shown, Humanized form of #001; also called VH1 + VL3) VH: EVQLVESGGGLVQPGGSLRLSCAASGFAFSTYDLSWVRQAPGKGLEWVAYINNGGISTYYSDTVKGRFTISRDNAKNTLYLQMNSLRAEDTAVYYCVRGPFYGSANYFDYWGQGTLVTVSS VL: DIQMTQSPSSLSASVGDRVTITCRTSESIYSNLPWYQQKPGKAPKLLIYDATKLAEGVPSRFSGSGSGTDYTLTISSLQPEDFATYYCQHFWVTPWTFGQGTKVEIK",
    "recorded result": 431
  },
  {
    "binder": "224-Hu6 (antibody, V domains shown, Humanized form of #224; also called VH8 + VL7) VH: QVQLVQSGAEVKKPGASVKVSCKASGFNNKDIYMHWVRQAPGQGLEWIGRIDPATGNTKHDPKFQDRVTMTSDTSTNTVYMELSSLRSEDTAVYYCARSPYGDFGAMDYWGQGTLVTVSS VL: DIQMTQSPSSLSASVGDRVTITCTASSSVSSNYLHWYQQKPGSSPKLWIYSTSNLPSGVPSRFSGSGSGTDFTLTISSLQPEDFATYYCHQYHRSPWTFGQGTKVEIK",
    "recorded result": 603
  },
  {
    "binder": "219-Hu3 (antibody, V domains shown, also called VH5 + VL5) VH: QVQLVQSGAEVKKPGSSVKVSCKASGYSFTNYWMNWVRQAPGQGLEWMGMIHPSDTETRLNQNFKDRVTITADKSTSTAYMELSSLRSEDTAVYYCARGEGLGAARSVSMDYWGQGTLVTVSS VL: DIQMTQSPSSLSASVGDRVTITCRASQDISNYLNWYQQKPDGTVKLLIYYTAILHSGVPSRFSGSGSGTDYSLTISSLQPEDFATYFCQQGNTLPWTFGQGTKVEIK",
    "recorded result": 497
  }
]
